What Dmax at 3 µM was measured for each of the following?
# measured_on: MycC (Homo sapiens, UniProt P01106)
# Construct: endogenous in cells; host or cells: L363
# Sequence (P01106 whole entry): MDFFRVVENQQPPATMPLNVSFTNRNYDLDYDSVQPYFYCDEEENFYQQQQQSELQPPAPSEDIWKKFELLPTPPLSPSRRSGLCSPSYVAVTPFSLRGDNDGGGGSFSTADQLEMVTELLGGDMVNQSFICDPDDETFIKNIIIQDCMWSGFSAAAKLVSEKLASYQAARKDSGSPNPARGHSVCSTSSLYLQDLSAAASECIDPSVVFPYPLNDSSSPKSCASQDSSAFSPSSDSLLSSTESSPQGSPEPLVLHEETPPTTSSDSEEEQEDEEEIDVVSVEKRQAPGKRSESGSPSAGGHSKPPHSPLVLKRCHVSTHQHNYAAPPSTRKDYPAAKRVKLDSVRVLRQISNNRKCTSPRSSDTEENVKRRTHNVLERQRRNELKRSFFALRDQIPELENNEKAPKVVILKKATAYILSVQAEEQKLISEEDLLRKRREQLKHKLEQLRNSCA
# test_name: Degradation of MycC protein in L363 cells, JESS/Western blot of lysates
# Format: cell-based
# measurement_context: L-363, 24 h, L-363 cells, 24 h, 3 μM; read-out: % Degradation of MycC (L-363) 24 h, 3 μM

Documented Dmax at 3 µM of c1cc(Nc2cc(C3CC3)[nH]n2)nc(N2CCC3(CNC3)C2)n1 [Compound 2] : 20 to 49%

What the record says about CNC[C@@H]1CN(c2nccc(Nc3cc(C4CCCC4)[nH]n3)n2)CCO1 [Compound 118] : Dmax at 3 µM is < 20%

For record CNC[C@@H]1CCCN(c2nccc(Nc3cc(C4CC4)[nH]n3)n2)C1 [Compound 37] the listed Dmax at 3 µM is < 20%

Short answer for CNC[C@@H]1CCN(c2nccc(Nc3cc(C4CCCC4)[nH]n3)n2)C1 [Compound 36] : Dmax at 3 µM was < 20%

The compound listed as CNC[C@@H]1CCN(c2nccc(Nc3cc(C4CC4)[nH]n3)n2)C1 [Compound 21] shows Dmax at 3 µM equal to < 20%
